Entries annotated with measured half-life
# measurement.protocol: in vivo pharmacokinetic study in SD rats
# condition.info: male, rat, plasma, 1 mg/kg, PO
API: value field is a number in h; no unit string.

| compound | half-life [h] |
| --- | --- |
| Cc1cccnc1[C@H](Nc1c(Nc2ccnc(C(=O)N(C)C)c2O)c(=O)c1=O)C1(C)CC(F)(F)C1 | 2.01 |
| CN(C)C(=O)c1nccc(Nc2c(N[C@@H](c3nc(F)ccc3F)C3(C)CCCC3)c(=O)c2=O)c1O | 2.08 |
| CN(C)C(=O)c1nccc(Nc2c(N[C@@H](c3nc(Cl)ccc3F)[C@@]3(C)CC(F)(F)CO3)c(=O)c2=O)c1O [068B] | 1.53 |

Prompt: Field request: half-life | item: Cc1cc(F)cnc1[C@H](Nc1c(Nc2ccnc(C(=O)N(C)C)c2O)c(=O)c1=O)[C@@]1(C)CC(F)(F)CO1 [093B]
Completion: 3.83

Prompt: Item under review: CN(C)C(=O)c1nccc(Nc2c(N[C@@H](c3nc(C(F)F)ccc3F)C3(C)CCCC3)c(=O)c2=O)c1O . Reported half-life?
Completion: 2.07

Prompt: Entry under review: Cc1nccnc1[C@H](Nc1c(Nc2ccc(F)c(C(=O)N(C)C)c2O)c(=O)c1=O)C1(C)CCCC1 . Reported half-life?
Completion: 2.79

Prompt: Which half-life value is on record for CN(C)C(=O)c1nccc(Nc2c(N[C@@H](C#CC3CCC3)[C@]3(C)CC(F)(F)CO3)c(=O)c2=O)c1O (single isomer, unassigned) [110A] ?
Completion: 0.93

###

# measurement.protocol: in vitro liver microsome metabolic stability, human
# Format: in vitro ADME
# condition.info: Human liver microsomes, 37°C
Label scheme for Liver microsome T1-2 (min) Human: bucket A (below 300 min), bucket B (300 min to below 600 min), bucket C (600 min or more)

Recorded results for 10 compounds are shown here.
| compound | answer.label |
| --- | --- |
| Cc1nccnc1[C@H](Nc1c(Nc2ccc(Cl)c(C(=O)N(C)C)c2O)c(=O)c1=O)C1(C)CCCC1 [compound 078] | bucket C |
| CN(C)C(=O)c1nccc(Nc2c(N[C@@H](c3ccc(Cl)cn3)C3(C)CCCC3)c(=O)c2=O)c1O [compound 013] | bucket B |
| Cc1cccnc1[C@@H](Nc1c(Nc2ccnc(C(=O)N(C)C)c2O)c(=O)c1=O)[C@]1(C)CCC(F)(F)C1 (single isomer, unassigned) [125D] | bucket B |
| CC#CC(Nc1c(Nc2ccnc(C(=O)N(C)C)c2O)c(=O)c1=O)C1(C)CCC(F)(F)C1 (stereo not drawn) [compound 111] | bucket B |
| CN(CC(F)(F)F)C(=O)c1nccc(Nc2c(N[C@@H](c3ccc(F)cn3)C3(C)CCCC3)c(=O)c2=O)c1O [compound 070] | bucket A |
| CN(C)C(=O)c1nccc(Nc2c(N[C@@H](c3cccc(Cl)n3)C3(C)CCCC3)c(=O)c2=O)c1O [compound 003] | bucket B |
| Cc1cccnc1C(Nc1c(Nc2ccc(Cl)c(C(=O)N(C)C)c2O)c(=O)c1=O)C1(C)CCOC1 (stereo not drawn) [compound 083] | bucket B |
| Cc1nccnc1[C@H](Nc1c(Nc2ccc(F)c(C(=O)N(C)C(C)C)c2O)c(=O)c1=O)C1(C)CCCC1 [compound 090] | bucket A |
| Cc1cccnc1[C@H](Nc1c(Nc2ccnc(C(=O)N(C)C)c2O)c(=O)c1=O)[C@]1(C)CC(F)(F)CO1 (single isomer, unassigned) [128B] | bucket A |
| Cc1nccnc1[C@H](Nc1c(Nc2ccnc(C(=O)N(C)C)c2O)c(=O)c1=O)C1(C)CCCC1 [compound 091] | bucket C |

Proceed to the following item.
Prompt: # bin lookup: classify CN(C)C(=O)c1nccc(Nc2c(N[C@@H](C#CC3CCC3)[C@]3(C)CC(F)(F)CO3)c(=O)c2=O)c1O (single isomer, unassigned) [110A] by its Liver microsome T1-2 (min) Human
Completion: bucket C
